# experimentalProtocol: ATPase activity at 0.05 ppm enzyme on 0.1 mM ATP (absorbance 620 nm)
# Assay type: biochemical
# measurementContext: 50 mM IVIES buffer pH 5
parameter: Activity on ATP (absorbance at 620 nm, blank subtracted), pH 5.0

-- ask Give the reported value of Activity on ATP (absorbance at 620 nm, blank subtracted), pH 5.0 for this record: CRC21322: Acid phosphatase (Class A), accession AEG96708.1, SEQ ID NO:17 (protein, Klebsiella aerogenes) KENKGFLNADTSPDSLAILPPPPTENSVAFLQDKADYETGRVLKNKERTELAAKDANYKNFGQAFSEAFGMVISAERTPVLYLLLSEVLQDSHDYAMRSAKDHYMRVRPFVLYKNPTCTPEKDDKMAKTGSYPSGHASFGWAAALVLAEINPARETEILKRGMDFGESRVVCGAHWQSDVDSGRIMGAAVVAALHANPRFANTLSEAKKEFAALSAKSE
-- reply 0.40

-- ask Give the reported value of Activity on ATP (absorbance at 620 nm, blank subtracted), pH 5.0 for this record: CRC25089: Acid phosphatase (Class A), accession WP_217352265.1, SEQ ID NO:22 (protein, listed as Paraburkholderia bonniea) AGSDGFLTAETAPSSLAILPPPPAENTVAFLNDKANYEIGRSLKNDARVALAASDANCKNINAIFSSAFGREISEEKTPKLYRLLLGVLQDSHDHAMKSAKNHYMRVRPFVMYGDKTCTPEEDNKMKNTGSYPSGHASFGWAAALVLSEINPERTTEILRRGYDFGQSRVVCGAHWQSDVDNGRLMGAAVVADLHNNDKFIKALEAAKAEFKENTPGN
-- reply 0.24

-- ask Give the reported value of Activity on ATP (absorbance at 620 nm, blank subtracted), pH 5.0 for this record: CRC25099: Acid phosphatase (Class A), accession WP_195761705.1, SEQ ID NO:23 (protein, listed as Pantoea sp.) LQSSGFLTAETAPDSLAILPPPPAENSVTFQSDKAQYEAGHVLRNVARTELASKDADYKNFGQAFSAAFGMEISESHTPVLYHLLSEVLQDSHDFAMRGAKDHYKRVRPFVIYKDSTCTPDKDKSMSTTGSYPSGHASFGWAAALILAEINPSRETEIIRRGYDFGESRVVCGAHWQSDVENGRIMGATVVASLHANAKFAELLSQAKNEFATLSAQDSK
-- reply 1.05

-- ask Give the reported value of Activity on ATP (absorbance at 620 nm, blank subtracted), pH 5.0 for this record: CRC25084: Acid phosphatase (Class A), accession WP_088823167.1, SEQ ID NO:20 (protein, listed as Acinetobacter apis) ADSNNSFLQLNQVPDSLKIVPAPPAFNSVDFLRDKAAYDQARSLVGTARWQQAAVDADLSDANIGKSFSEAFGVEISPTNTPVTYEILRKLRTDAGGYATKTAKEHYMRMRPFVFFNSHTCTPNDEASLSKNGAYPSGHTTIGWSSALILAEIRPDRQNEILERGYQYGQSRVICGVHWQSDVDAGRITGSAIVARLHADKDFAKTLEDAKREIQKKIK
-- reply 0.20

-- ask Give the reported value of Activity on ATP (absorbance at 620 nm, blank subtracted), pH 5.0 for this record: CRC25082: Acid phosphatase (Class A), accession WP_050460978.1, SEQ ID NO:19 (protein, listed as Herbaspirillum autotrophicum) KGAAGFLNGQTAPDSLAILPPPPAEDSVAFQADKAQYETGHVLRDPERVEQARQDADYRNFGHAFSAAFGMEISATHTPVLYQLLTEVLQDSHDYAMKAAKNHYKRVRPFVVYKDPTCTPGQDEKMALSGSYPSGHASFGWAAALVLAEINPARQTEILQRGYAFGKSRVICGAHWQSDVDNGQLMGAAVVAALHSNSQFAAALNAAKNEFAGLRAQDNKK
-- reply 0.93

-- ask Give the reported value of Activity on ATP (absorbance at 620 nm, blank subtracted), pH 5.0 for this record: CRC25100: Acid phosphatase (Class A), internal database, SEQ ID NO:24 (protein, environmental sample) GENSGFLSPETSPNSLEILPPPPSEGSIAFLNDKANYDIGHTLKNEGRLAQAVSDANYKNLTDAFSKAFGETISEQNTPALYSLLQNVLQDSHDFAMRAAKDHYKRVRPFVIYKDHTCTPAEDTKMAKTGSYPSGHASFGWATALVLSEINPARETEILKRGYEFGQSRVICGAHWQSDVDSGRIMGAAVVASLHNNSDFISALAKAKEEFRKK
-- reply 1.11

-- ask Give the reported value of Activity on ATP (absorbance at 620 nm, blank subtracted), pH 5.0 for this record: CRC21323: Acid phosphatase (Class A), accession WP_054306375.1, SEQ ID NO:18 (predicted mature), SEQ ID NO:2 (protein, listed as Serratia rubidaea) AQTPGFLTPETAPDSLQILPPPPAENTTAFLNDKAAYETGKTLKDAQRQALAASDADYKNISAAFSAAFGEEISPEKTPALYALLQGVLQDSHDYAMRAAKDHYMRVRPFVVYKDSTCTPEKDKSMAKTGSYPSGHASFGWATALVLTEINPARETEILKRGYDFGQSRVVCGAHWQSDVDNGRLMGAAVVAALHGNQGFNDALAKAKAEFAKR
-- reply 0.39

-- ask Give the reported value of Activity on ATP (absorbance at 620 nm, blank subtracted), pH 5.0 for this record: CRC25085: Acid phosphatase (Class A), accession WP_092747651.1, SEQ ID NO:21 (protein, listed as Acinetobacter boissieri) LEQSNSFLQLAQVPDSLAIVPAPPAYNSVDFLRDKAAYDQAKSLVGTERWKVAAEDADLSDANIGKPFSQALGIEISPQNTPITYEILRKLRTDAGNYATKAAKEHYMRLRPFMFFNSHTCTPNDEANLSKNGAYPSGHTTIGWSSALVLAEIRPERQNEILQRGYEYGQSRVICGVHWQSDVDAGRITGSAIVARLHADKAFTKMLEEAKQEIQRKTK
-- reply 0.23

From: patent US20240124857A1
